Provide the reported IC50 of each item.
Tested on: CCRF-CEM
protocol-description: Cytostatic activity against human CCRF-CEM cells after 3 days by MTT assay
Format: functional, cell-based
experimental-setup: 72 h

Which IC50 is reported for this compound? c1csc(Sc2c[nH]c3ncnc(-c4cccs4)c23)c1
10.6 µM

Continue with CNc1ncnc2[nH]cc(Sc3cccs3)c12
14.7 µM

Cool, now COc1ncnc2[nH]cc(Sc3cccs3)c12
18.2 µM

Another compound to check: Cc1ncnc2[nH]cc(Sc3cccs3)c12
> 50 µM

What do we get for Nc1ncnc2[nH]cc(Sc3cccs3)c12 ?
16.7 µM

Entry to check: Nc1ncnc2c1c(Sc1ccccc1)cn2[C@@H]1O[C@H](CO)[C@@H](O)[C@H]1O
34 µM

Next compound: Nc1ncnc2c1c(Sc1cccs1)cn2[C@@H]1O[C@H](CO)[C@@H](O)[C@H]1O
64.7 µM

Also need CN(C)c1ncnc2[nH]cc(Sc3cccs3)c12 , thanks.
14.6 µM

Subsequent entry: c1coc(-c2ncnc3[nH]cc(Sc4cccs4)c23)c1
7.73 µM
